PROCEDURE_DETAILS: NCI Yeast Anticancer Drug Screen. Data for the rad50 strain (AID 155);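 also: 0% = growth of vehicle-only cultures of the same strain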
EXPERIMENTAL_PARAMETERS: S. cerevisiae rad50 strain growth inhibition; at 50.0 µM; active compounds read high
Experimental: Growth inhibition of yeast strains with defined genetic alterations is measured as a screen for potential anti-cancer activity. Selected strains with alterations in DNA damage repair or cell cycle control were exposed to compounds and growth inhibition was measured relative to vehicle treated controls. The strain used in this assay is rad50
This is part of a sample that, as a whole, favours compounds with a hit. Of some 79,000 tested, about 15% had one in any assay.
METRIC: growth inhibition (%)
Report the figure in % without appending any unit label.

COMPOUND | RESULT_UNITS | growth inhibition
O=C(NCCCCCCNC(=O)Nc1cccc2ccccc12)Nc1cccc2ccccc12 | % | -13.9

Task: Which growth inhibition value is on record for "COc1c(C)c2nc3ccccc3[nH]c2c2c(=O)ccnc12" ?
Result: -3.8

Task: Moving on to "c1cc2c3c(cccc3c1)N1C(=N2)Sc2nc3ccccc3nc21"
Result: 3.15

Task: What would you report for COc1cc(O)c2c(c1)C(=O)C1=C(C2=O)[C@@H](C)OC(C)C1 (stereo not given in full) ?
Result: -4.3

Task: Consider next the compound COC1(OC)CC(CCl)OC1(OC)OC (stereo not given) in the same way.
Result: -2.45
